Source: PubChem BioAssay (NCI)

Catalogue of compounds with associated growth
System: HOP-62 NSCLC
Assay: NCI-60 one-dose screen, 48 h (100 = growth as untreated, 0 = no growth, -100 = all killed)
Conditions: 10 µM unless noted
Compounds without any hit were thinned out: in the full panel of roughly 83,000, 20% have a hit.

[
  {
    "Compound": "COc1ccc(Cn2nc3c(c2-c2cc(OC)c(OC)c(OC)c2)-c2oncc2CC3)cc1",
    "growth / %": 96.7
  },
  {
    "Compound": "CCN(CCNc1cc(OC)cc2cccnc12)CCc1ccccc1",
    "growth / %": 64.9
  },
  {
    "Compound": "CCCC1C(C(=O)OCC)=C(N)Oc2cc(O)ccc21 (stereo not given)",
    "growth / %": 76.7
  },
  {
    "Compound": "O=C(Nc1sc2c(c1C(=O)O)CCCC2)c1cccc(C(F)(F)F)c1",
    "growth / %": 104
  },
  {
    "Compound": "C(=C\\c1n(Cc2ccc3ccccc3c2)c(-c2ccccc2)c(-c2ccccc2)[n+]1Cc1ccc2ccccc2c1)/c1ccccc1",
    "growth / %": -84.5
  },
  {
    "Compound": "COc1ccc(C(=O)c2cc3c(N)c(C(=O)Nc4ccc(Br)cc4)sc3nc2C)cc1",
    "growth / %": 21.2
  },
  {
    "Compound": "O=S(=O)(c1ccccc1)N1CCCc2ccccc21",
    "growth / %": 94.2
  },
  {
    "Compound": "CCOC(=O)C1CC(=O)c2cc(OC)c(OC)cc2C1 (stereo not given)",
    "growth / %": 96
  },
  {
    "Compound": "CCOC(=O)c1c(O)cc(-c2ccccc2)cc1-c1sc(N(C)Cc2ccccc2)nc1Cl",
    "growth / %": 104
  },
  {
    "Compound": "N#Cc1c(Nc2ccccc2)nn2cc(-c3nc4ccccc4s3)c(N)nc12",
    "growth / %": 92.9
  }
]

----------
System: SR leukemia
Experiment: NCI-60 one-dose screen, 48 h (100 = growth as untreated, 0 = no growth, -100 = all killed)
Conditions: 10 µM unless noted
Compounds without any hit were thinned out: in the full panel of roughly 83,000, 20% have a hit.
Catalogue of compounds with associated growth
Readout Type: growth (%)

[
  {
    "Compound": "COc1cc(C2CC(c3cccc(Nc4ccncc4)c3)=NN2C(C)=O)cc(OC)c1OC (stereo not given)",
    "Value Unit": "%",
    "Obs Value": 27.3
  },
  {
    "Compound": "CCCCCCN(C)Cc1ccc(OCCOc2ccc(CN(C)CCCCCC)cc2)cc1",
    "Value Unit": "%",
    "Obs Value": -43.7
  },
  {
    "Compound": "CC(C)Cc1ccc(C(C)C(=O)NCc2ccc(Cn3c(=O)sn(-c4ccc(Cl)cc4)c3=O)cc2)cc1 (stereo not given)",
    "Value Unit": "%",
    "Obs Value": 72.2
  },
  {
    "Compound": "O=C1CCCN1c1cccc2cccnc12",
    "Value Unit": "%",
    "Obs Value": 101
  },
  {
    "Compound": "CCSc1ccc2c(c1)N(CCCN1CCN(C)CC1)c1ccccc1S2",
    "Value Unit": "%",
    "Obs Value": -15
  },
  {
    "Compound": "C=C(C)[C@@H]1CC[C@]2(C(=O)N3CCN(C)CC3)CC[C@]3(C)[C@H](CC[C@@H]4[C@@]5(C)CCC(=O)C(C)(C)[C@@H]5CC[C@]43C)[C@@H]12",
    "Value Unit": "%",
    "Obs Value": -12.1
  },
  {
    "Compound": "N#Cc1c(NC(=O)c2cccc(Br)c2)sc2c1CCCC2",
    "Value Unit": "%",
    "Obs Value": 31.9
  },
  {
    "Compound": "Clc1nc(Cl)c2ncn(CCOCCn3cnc4c(Cl)nc(Cl)nc43)c2n1",
    "Value Unit": "%",
    "Obs Value": -75.9
  },
  {
    "Compound": "COc1cc(/C=N/NC(=O)c2ccccc2Nc2cccc(C(F)(F)F)c2)ccc1O",
    "Value Unit": "%",
    "Obs Value": -66.4
  },
  {
    "Compound": "NC(=O)c1cccc(-c2cc(C(N)=O)ccc2Cl)c1",
    "Value Unit": "%",
    "Obs Value": 2.33
  }
]
